- measured on: T1, 4H908-bH
- T1 chain: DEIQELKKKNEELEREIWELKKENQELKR
- measurement notes: two-hybrid library CCNG1;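 note: natural log of median RNA to DNA barcode read ratio; higher means stronger binding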
interaction score under -0.6 gets Satisfied, anything at or over -0.6 gets Not satisfied.

binder: DEIQELKKENEELERKIWELKKKNQELER [4H687-bH]
class assignment: Not satisfied
//
binder: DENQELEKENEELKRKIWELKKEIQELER [4H1257-bH]
class assignment: Satisfied
//
binder: DEIQELKKENEELKREIWELKKKIQELER [4H717-bH]
class assignment: Satisfied

Given the entry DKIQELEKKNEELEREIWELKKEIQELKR [4H2442-bH] , would its reported interaction score be below -0.6? Satisfied

interaction score strictly < -0.6 for this binder? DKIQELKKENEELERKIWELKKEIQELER [4H2729-bH] Satisfied

Strictly below -0.6: is that where interaction score of DKNQELEKKIEELERENWELKKEIQELKR [4H3354-bH] sits? Satisfied

interaction score under -0.6? Item: DKNQELKKKNEELERKIWELEKEIQELER [4H4001-bH] Not satisfied
